In this section, each of the compounds is paired with its reported CLZD_CYP3A4_24.
system: CYP3A4; test: CLZD_CYP3A4: Change in expression of CYP3A4 (primary human hepatocytes); assay type: cell-based; conditions: 24 hr
Answer with the value's number alone.

Consider the reported CLZD_CYP3A4_24 for these compounds:
{"COMPOUND": "CSc1nc(NC(C)C)nc(NC(C)C)n1", "ASSAYED_TARGET": "CYP3A4", "CLZD_CYP3A4_24": 5.143}
{"COMPOUND": "COc1nc(C)nc(NC(=O)NS(=O)(=O)c2ccccc2CCC(F)(F)F)n1 [r266]", "ASSAYED_TARGET": "CYP3A4", "CLZD_CYP3A4_24": 5.037}
{"COMPOUND": "COc1cc(OC)nc(Sc2cccc(Cl)c2C(=O)[O-])n1.[Na+]", "ASSAYED_TARGET": "CYP3A4", "CLZD_CYP3A4_24": 4.874}
{"COMPOUND": "COc1nc(C)nc(NC(=O)NS(=O)(=O)c2ccccc2CCC(F)(F)F)n1 [r267]", "ASSAYED_TARGET": "CYP3A4", "CLZD_CYP3A4_24": 5.396}
{"COMPOUND": "Cc1nn(-c2cc(NS(C)(=O)=O)c(Cl)cc2Cl)c(=O)n1C(F)F", "ASSAYED_TARGET": "CYP3A4", "CLZD_CYP3A4_24": 5.471}

Note: attention shifts to another entry.
*Q* Provide the reported CLZD_CYP3A4_24 (system: CYP3A4) for CC(C)Oc1cc(-n2nc(C(C)(C)C)oc2=O)c(Cl)cc1Cl
*A* 6.246
